assay.protocol: Single-dose pharmacokinetics, safety and tolerability of 10-minute intravenous infusion in healthy volunteers
Format: in vivo, human
setup.conditions: human, plasma, 8 ug/kg; 8 μg/kg iv over 10 minutes; read-out: CL, mean (SD)
test.readout: clearance (mL/min/kg)
One number for each entry, in mL/min/kg.

Consider Nc1nc(N/N=C/C2CCCCC2)nc2c1ncn2[C@@H]1O[C@H](CO)[C@@H](O)[C@H]1O (stereo in doubt) . Its measured clearance is 39.5

---

assay.protocol: Single-dose pharmacokinetics, safety and tolerability of 10-minute intravenous infusion in healthy volunteers
Format: in vivo, human
setup.conditions: human, plasma, 1 ug/kg; 1 μg/kg iv over 10 minutes
test.readout: Tmax (min)
Numbers only, in min.

Entry Nc1nc(N/N=C/C2CCCCC2)nc2c1ncn2[C@@H]1O[C@H](CO)[C@@H](O)[C@H]1O (stereo in doubt) , Tmax reported as 10

---

assay.protocol: Single-dose pharmacokinetics, safety and tolerability of 10-minute intravenous infusion in healthy volunteers
Assay type: in vivo, human
setup.conditions: human, plasma, 1 ug/kg; 1 μg/kg iv over 10 minutes; read-out: AUClast, mean (SD) (converted)
test.readout: AUC(0-t) (ng·h/mL)
Numbers only, in ng·h/mL.

Sure, the documented AUC(0-t) for Nc1nc(N/N=C/C2CCCCC2)nc2c1ncn2[C@@H]1O[C@H](CO)[C@@H](O)[C@H]1O (stereo in doubt) is 0.415

---

assay.protocol: Single-dose pharmacokinetics, safety and tolerability of 10-minute intravenous infusion in healthy volunteers
Format: in vivo, human
setup.conditions: human, plasma, 0.4 ug/kg; 0.4 μg/kg iv over 10 minutes; read-out: AUC0-∞, mean (SD) (converted)
test.readout: AUC(0-inf) (ng·h/mL)
Answers are plain numbers, in ng·h/mL.

Lab note: Nc1nc(N/N=C/C2CCCCC2)nc2c1ncn2[C@@H]1O[C@H](CO)[C@@H](O)[C@H]1O (stereo in doubt) gave AUC(0-inf) of 0.207

---

assay.protocol: Single-dose pharmacokinetics, safety and tolerability of 10-minute intravenous infusion in healthy volunteers
Format: in vivo, human
setup.conditions: human, plasma, 0.4 ug/kg; 0.4 μg/kg iv over 10 minutes; read-out: T1/2, mean (SD)
test.readout: half-life (min)
One number for each entry, in min.

Item: Nc1nc(N/N=C/C2CCCCC2)nc2c1ncn2[C@@H]1O[C@H](CO)[C@@H](O)[C@H]1O (stereo in doubt) | half-life: 8.8

---

assay.protocol: Single-dose pharmacokinetics, safety and tolerability of 10-minute intravenous infusion in healthy volunteers
Assay type: in vivo, human
setup.conditions: human, plasma, 4 ug/kg; 4 μg/kg iv over 10 minutes; read-out: CL, mean (SD)
test.readout: clearance (mL/min/kg)
Give bare numbers, in mL/min/kg.

Looking up Nc1nc(N/N=C/C2CCCCC2)nc2c1ncn2[C@@H]1O[C@H](CO)[C@@H](O)[C@H]1O (stereo in doubt) [Binodenoson] , I see its clearance listed as 39.8

---

assay.protocol: Single-dose pharmacokinetics, safety and tolerability of 10-minute intravenous infusion in healthy volunteers
Assay type: in vivo, human
setup.conditions: human, plasma, 2 ug/kg; 2 μg/kg iv over 10 minutes; read-out: CL, mean (SD)
test.readout: clearance (mL/min/kg)
Numbers only, in mL/min/kg.

clearance in this record for Nc1nc(N/N=C/C2CCCCC2)nc2c1ncn2[C@@H]1O[C@H](CO)[C@@H](O)[C@H]1O (stereo in doubt) [Binodenoson] : 33

---

assay.protocol: Single-dose pharmacokinetics, safety and tolerability of 10-minute intravenous infusion in healthy volunteers
Type: in vivo, human
setup.conditions: human, plasma, 8 ug/kg; 8 μg/kg iv over 10 minutes
test.readout: Tmax (min)
Give bare numbers, in min.

Input Nc1nc(N/N=C/C2CCCCC2)nc2c1ncn2[C@@H]1O[C@H](CO)[C@@H](O)[C@H]1O (stereo in doubt) . Output Tmax: 10.5

---

assay.protocol: Single-dose pharmacokinetics, safety and tolerability of 10-minute intravenous infusion in healthy volunteers
Assay type: in vivo, human
setup.conditions: human, plasma, 3 ug/kg; 3 μg/kg iv over 10 minutes; read-out: Vz, mean (SD)
Experimental: Subjects: This study was conducted at the New Orleans Center for Clinical Research, New Orleans, La., in accordance with US Good Clinical Practice guidelines. Subjects were required to be in generally good health as determined by physical examination and laboratory testing, as well as assessment of vital signs. […] A total of 40 to 42 blood samples were collected during the treatment phase for quantitation of binodenoson in plasma. […]
test.readout: Vd (L/kg)
Numbers only, in L/kg.

For reference, reported Vd for Nc1nc(N/N=C/C2CCCCC2)nc2c1ncn2[C@@H]1O[C@H](CO)[C@@H](O)[C@H]1O (stereo in doubt) [Binodenoson] stands at 0.65

---

assay.protocol: Single-dose pharmacokinetics, safety and tolerability of 10-minute intravenous infusion in healthy volunteers
Type: in vivo, human
setup.conditions: human, plasma, 2 ug/kg; 2 μg/kg iv over 10 minutes; read-out: Vz, mean (SD)
test.readout: Vd (L/kg)
Give bare numbers, in L/kg.

Recorded Vd (molecule Nc1nc(N/N=C/C2CCCCC2)nc2c1ncn2[C@@H]1O[C@H](CO)[C@@H](O)[C@H]1O (stereo in doubt) [Binodenoson] ): 0.48

---

assay.protocol: Single-dose pharmacokinetics, safety and tolerability of 10-minute intravenous infusion in healthy volunteers
Assay type: in vivo, human
setup.conditions: human, plasma, 3 ug/kg; 3 μg/kg iv over 10 minutes; read-out: T1/2, mean (SD)
test.readout: half-life (min)
Answers are plain numbers, in min.

The compound listed as Nc1nc(N/N=C/C2CCCCC2)nc2c1ncn2[C@@H]1O[C@H](CO)[C@@H](O)[C@H]1O (stereo in doubt) [Binodenoson] has a reported half-life of 12.8

---

assay.protocol: Single-dose pharmacokinetics, safety and tolerability of 10-minute intravenous infusion in healthy volunteers
Format: in vivo, human
setup.conditions: human, plasma, 6 ug/kg; 6 μg/kg iv over 10 minutes; read-out: AUClast, mean (SD) (converted)
test.readout: AUC(0-t) (ng·h/mL)
Answers are plain numbers, in ng·h/mL.

Nc1nc(N/N=C/C2CCCCC2)nc2c1ncn2[C@@H]1O[C@H](CO)[C@@H](O)[C@H]1O (stereo in doubt) [Binodenoson] yielded AUC(0-t) of 2.22

---

assay.protocol: Single-dose pharmacokinetics, safety and tolerability of 10-minute intravenous infusion in healthy volunteers
Type: in vivo, human
setup.conditions: human, plasma, 2 ug/kg; 2 μg/kg iv over 10 minutes; read-out: T1/2, mean (SD)
Experimental: Subjects: This study was conducted at the New Orleans Center for Clinical Research, New Orleans, La., in accordance with US Good Clinical Practice guidelines. Subjects were required to be in generally good health as determined by physical examination and laboratory testing, as well as assessment of vital signs. […] A total of 40 to 42 blood samples were collected during the treatment phase for quantitation of binodenoson in plasma. […]
test.readout: half-life (min)
Answers are plain numbers, in min.

get_value(item= Nc1nc(N/N=C/C2CCCCC2)nc2c1ncn2[C@@H]1O[C@H](CO)[C@@H](O)[C@H]1O (stereo in doubt) , readout=half-life) returns 10

---

assay.protocol: Single-dose pharmacokinetics, safety and tolerability of 10-minute intravenous infusion in healthy volunteers
Assay type: in vivo, human
setup.conditions: human, plasma, 4 ug/kg; 4 μg/kg iv over 10 minutes; read-out: T1/2, mean (SD)
Description: Subjects: This study was conducted at the New Orleans Center for Clinical Research, New Orleans, La., in accordance with US Good Clinical Practice guidelines. Subjects were required to be in generally good health as determined by physical examination and laboratory testing, as well as assessment of vital signs. […] A total of 40 to 42 blood samples were collected during the treatment phase for quantitation of binodenoson in plasma. […]
test.readout: half-life (min)
Numbers only, in min.

half-life in this record for Nc1nc(N/N=C/C2CCCCC2)nc2c1ncn2[C@@H]1O[C@H](CO)[C@@H](O)[C@H]1O (stereo in doubt) : 13

---

assay.protocol: Single-dose pharmacokinetics, safety and tolerability of 10-minute intravenous infusion in healthy volunteers
Type: in vivo, human
setup.conditions: human, plasma, 8 ug/kg; 8 μg/kg iv over 10 minutes; read-out: AUC0-∞, mean (SD) (converted)
test.readout: AUC(0-inf) (ng·h/mL)
Numbers only, in ng·h/mL.

Reported AUC(0-inf) of Nc1nc(N/N=C/C2CCCCC2)nc2c1ncn2[C@@H]1O[C@H](CO)[C@@H](O)[C@H]1O (stereo in doubt) [Binodenoson] : 2.72

---

assay.protocol: Single-dose pharmacokinetics, safety and tolerability of 10-minute intravenous infusion in healthy volunteers
Format: in vivo, human
setup.conditions: human, plasma, 4 ug/kg; 4 μg/kg iv over 10 minutes; read-out: Vz, mean (SD)
test.readout: Vd
Please answer in the form of a number followed by its unit of measurement.

For record Nc1nc(N/N=C/C2CCCCC2)nc2c1ncn2[C@@H]1O[C@H](CO)[C@@H](O)[C@H]1O (stereo in doubt) [Binodenoson] the listed Vd is 0.69 L/kg
